Each recorded value in this set is attributed to paper PMC10114720.

test-summary: PDMS sheets cleaned by Soxhlet with ethyl acetate; batch shaking method with a mixture of all chemicals at several PDMS-mass to water-volume ratios and spiked levels; vials shaken on an orbital shaker at room temperature in the dark, sampled at two equilibration times; PDMS extracts and water quantified by LC-HRMS (Orbitrap); D from the slope of C_PDMS on C_w or their ratio; value is the mean over that pH's experiments (individual experiments in the SI's concentrations table), sd is the table's stdev
condition-summary: PDMS (polydimethylsiloxane silicone sheet); phosphate buffer at three target pH values (the paper's methods); pH 11.5
outcome-measure: log D PDMS/w (apparent distribution ratio at the stated pH)

Answered cases to consult:
molecule	observed-value
O=C(/C=C/C=C/c1ccc2c(c1)OCO2)N1CCCCC1	3.066 log units; D and K as the pape
CC(C)c1ccc2sc3ccccc3c(=O)c2c1	4.168 log units; D and K as the pape
CCCCCCCCCCCC(=O)N(CCO)CCO	2.749 log units; D and K as the pape
Cc1c(C=O)c(=O)n(-c2ccccc2)n1C	-0.1629 log units; D and K as the pape
N#Cc1nn(-c2c(Cl)cc(C(F)(F)F)cc2Cl)c(N)c1SC(F)(F)F	2.375 log units; D and K as the pape
CCC(C(N)=O)(C(N)=O)c1ccccc1	-0.5033 log units; D and K as the pape
Clc1ccc(COC(Cn2ccnc2)c2ccc(Cl)cc2Cl)c(Cl)c1 (stereo not shown)	4.53 log units; D and K as the pape
CCOC(=O)NCCOc1ccc(Oc2ccccc2)cc1	2.967 log units; D and K as the pape

## Task Which log D PDMS/w (apparent distribution ratio at the stated pH) is listed for Cc1cccc(C)c1N(Cn1cccn1)C(=O)CS(C)=O (stereo not shown) ?
## Result 0.6192 log units; D and K as the pape

## Task Which log D PDMS/w (apparent distribution ratio at the stated pH) is listed for `Nc1nc2ccccc2[nH]1` ?
## Result -0.51 log units; D and K as the pape

## Task Which log D PDMS/w (apparent distribution ratio at the stated pH) is listed for `Clc1ccccc1C(c1ccccc1)(c1ccccc1)n1ccnc1` ?
## Result 4.335 log units; D and K as the pape

## Task Which log D PDMS/w (apparent distribution ratio at the stated pH) is listed for `CCOC(=O)C(C)(C)Oc1ccc(Cl)cc1` ?
## Result 1.69 log units; D and K as the pape

## Task Which log D PDMS/w (apparent distribution ratio at the stated pH) is listed for `CCOC(=O)c1ccc(N)cc1` ?
## Result 0.4489 log units; D and K as the pape

## Task Which log D PDMS/w (apparent distribution ratio at the stated pH) is listed for `CCCCOCCOCCOCc1cc2c(cc1CCC)OCO2` ?
## Result 3.574 log units; D and K as the pape

## Task Which log D PDMS/w (apparent distribution ratio at the stated pH) is listed for `[O-][n+]1cccc2ccccc21` ?
## Result 1.203 log units; D and K as the pape

## Task Which log D PDMS/w (apparent distribution ratio at the stated pH) is listed for `c1ccc2sc(NC3CCCCC3)nc2c1` ?
## Result 3.04 log units; D and K as the pape

## Task Which log D PDMS/w (apparent distribution ratio at the stated pH) is listed for `CCNS(=O)(=O)c1ccccc1C` ?
## Result 0.4886 log units; D and K as the pape

====

test-summary: PDMS sheets cleaned by Soxhlet with ethyl acetate; batch shaking method with a mixture of all chemicals at several PDMS-mass to water-volume ratios and spiked levels; vials shaken on an orbital shaker at room temperature in the dark, sampled at two equilibration times; PDMS extracts and water quantified by LC-HRMS (Orbitrap); D from the slope of C_PDMS on C_w or their ratio; value is the mean over that pH's experiments (individual experiments in the SI's concentrations table), sd is the table's stdev
condition-summary: PDMS (polydimethylsiloxane silicone sheet); phosphate buffer at three target pH values (the paper's methods); pH 3
outcome-measure: log D PDMS/w (apparent distribution ratio at the stated pH)

Answered cases to consult:
molecule	observed-value
CC(CCc1ccccc1)NCC(O)c1ccc(O)c(C(N)=O)c1 (centres unmarked)	-0.855 log units; D and K as the pape
[O-][n+]1cccc2ccccc21	1.066 log units; D and K as the pape
CCOC(=O)c1ccc(N(C)C)cc1	2.216 log units; D and K as the pape
CC(C)(c1cc(Br)c(O)c(Br)c1)c1cc(Br)c(O)c(Br)c1	4.46 log units; D and K as the pape

Consider now this further molecule.
## Task Which log D PDMS/w (apparent distribution ratio at the stated pH) is listed for Cc1ccc(C=C2C(=O)C3(C)CCC2C3(C)C)cc1 (centres unmarked) ?
## Result 3.9 log units; D and K as the pape
